- Target Desc: UniProt:Q2NNR5
- Sequence (whole entry): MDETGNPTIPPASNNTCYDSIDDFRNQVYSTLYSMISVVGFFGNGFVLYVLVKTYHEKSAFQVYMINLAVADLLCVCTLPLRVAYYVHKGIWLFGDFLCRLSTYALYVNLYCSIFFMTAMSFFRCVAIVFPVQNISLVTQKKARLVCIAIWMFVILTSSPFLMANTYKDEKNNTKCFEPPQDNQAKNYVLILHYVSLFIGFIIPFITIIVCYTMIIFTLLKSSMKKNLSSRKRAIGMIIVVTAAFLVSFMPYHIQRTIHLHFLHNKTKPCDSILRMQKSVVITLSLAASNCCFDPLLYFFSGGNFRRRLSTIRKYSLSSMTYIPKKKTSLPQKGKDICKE
- Assay Overview: Percent inhibition against Cysteinyl leukotriene D4 receptor in guinea pig lung membranes using [3H]LTD4 4 at 10 e-5 M
- Assay type: cell membranes
- Conditions: Membrane
Given measured inhibition, output yes (1) if it is greater than or equal to 20% and no (0) if not.

{"columns": ["Smiles Input", "Target Desc", "Label Value"],
 "data": [
  ["N#Cc1ccc(O)c(C(=O)/C=C/c2cccc(OCc3ccc4ccccc4n3)c2)c1", "UniProt:Q2NNR5", "yes (1)"],
  ["O=C(O)c1ccc(O)c(C(=O)/C=C/c2ccccc2OCc2ccc3ccccc3n2)c1", "UniProt:Q2NNR5", "no (0)"],
  ["O=C(O)c1ccc(O)c(C(=O)/C=C/c2ccc(OCc3ccccc3)cc2)c1", "UniProt:Q2NNR5", "yes (1)"]
]}

Hello, I need to know if `CCCCOc1ccc(C(=O)O)cc1C(=O)/C=C/c1ccc(OCc2ccc3ccccc3n2)cc1` has measured inhibition not below 20%. Thanks! yes (1)

Hello, I need to know if `N#Cc1ccc(C(=O)/C=C/c2ccc(OCc3ccc4ccccc4n3)cc2)cc1` has measured inhibition not below 20%. Thanks! no (0)

###

- Target Desc: Cysteinyl leukotriene receptor 1 (Cavia porcellus) (UniProt Q2NNR5)
- Assay Overview: Percent inhibition against Cysteinyl leukotriene D4 receptor in guinea pig lung membranes using [3H]LTD4 4 at 10 e-5 M
- Assay type: cell membranes
- Conditions: Membrane
Quantity Name: inhibition (%)
I only need the number, in %, no unit after it.

{"columns": ["Smiles Input", "Experimental Value"],
 "data": [
  ["O=C(/C=C/c1ccc(OCc2ccc3ccccc3c2)cc1)c1cc(-c2nn[nH]n2)ccc1O", 4]
]}

Provide inhibition value for the following compound: `CCOC(=O)c1ccc(O)c(C(=O)/C=C/c2ccc(OCc3ccc4ccccc4n3)cc2)c1` 16

Provide inhibition value for the following compound: `N#Cc1ccc(C(=O)/C=C/c2cccc(OCc3ccc4ccccc4n3)c2)cc1` 7

Provide inhibition value for the following compound: `O=C(O)c1ccc(O)c(C(=O)/C=C/c2ccccc2OCc2ccccc2)c1` 0

###

- Target Desc: Cysteinyl leukotriene receptor 1 (Cavia porcellus)
- Assay Overview: Displacement of [3H]LTD4 from Cysteinyl leukotriene D4 receptor in guinea pig lung membranes
molecules and their reported Kd
Value and unit, in that order.

Answered cases to consult:
{"columns": ["Smiles Input", "Kd"],
 "data": [
  ["O=C(/C=C/c1ccc(/C=C/c2ccc3ccc(Cl)cc3n2)cc1)c1cc(-c2nn[nH]n2)ccc1O", "239 nM"],
  ["N#Cc1cc(Cl)cc(C(=O)/C=C/c2cccc(/C=C/c3ccc4ccccc4n3)c2)c1O", "449 nM"],
  ["O=C(/C=C/c1cccc(OCc2ccc3ccccc3c2)c1)c1cc(-c2nn[nH]n2)ccc1O", "19200 nM"]
]}

Provide Kd value for the following molecule: `O=C(/C=C/c1ccc(OCc2ccc3ccc(Cl)cc3n2)cc1)c1cc(-c2nn[nH]n2)ccc1O` 196 nM

Provide Kd value for the following molecule: `O=C(O)c1cc(Cl)cc(C(=O)/C=C/c2ccc(OCc3ccc4ccccc4n3)cc2)c1O` 732 nM

Provide Kd value for the following molecule: `O=C(O)c1ccc(C(=O)/C=C/c2cccc(OCc3ccc4ccccc4n3)c2)c(O)c1` 928 nM

Provide Kd value for the following molecule: `O=C(O)c1ccc(O)c(C(=O)/C=C/c2ccc3ccccc3n2)c1` 11100 nM

Provide Kd value for the following molecule: `O=C(O)c1cccc(C(=O)/C=C/c2ccc(OCc3ccc4ccccc4n3)cc2)c1O` 307 nM

Provide Kd value for the following molecule: `O=C(/C=C/c1ccc(OCc2nccs2)cc1)c1cc(-c2nn[nH]n2)ccc1O` 233 nM

Provide Kd value for the following molecule: `O=C(/C=C/c1cccc(/C=C/c2ccc3ccccc3n2)c1)c1cc(Cl)cc(-c2nn[nH]n2)c1O` 828 nM

Provide Kd value for the following molecule: `CCOCCn1c(COc2ccc(/C=C/C(=O)c3cc(-c4nn[nH]n4)ccc3O)cc2)nc2ccccc21` 527 nM

Provide Kd value for the following molecule: `CC(C)(C)c1cc(C(=O)O)c(O)c(C(=O)/C=C/c2cccc(/C=C/c3ccc4ccccc4n3)c2)c1` 208 nM

Provide Kd value for the following molecule: `O=C(O)COc1ccc(O)c(C(=O)/C=C/c2cccc(/C=C/c3ccc4ccccc4n3)c2)c1` 175 nM

Provide Kd value for the following molecule: `CCOCCn1c(COc2ccc(/C=C/C(=O)c3ccc(C(=O)O)cc3O)cc2)nc2ccccc21` 62400 nM

###

- Species: Cavia porcellus
- Assay Overview: Inhibition of LTD4 induced contraction of guinea pig ileum
- Format: functional
Doc: threshold 200 nM (exclusive). Items with IC50 beneath it return Y; others return N.

Sample answers from the record:
{"columns": ["Smiles Input", "Label Value"],
 "data": [
  ["O=C(O)c1cc(Cl)cc(C(=O)/C=C/c2cccc(/C=C/c3ccc4ccccc4n3)c2)c1O", "N"],
  ["O=C(O)c1cccc(C(=O)/C=C/c2cccc(/C=C/c3ccc4ccccc4n3)c2)c1O", "Y"],
  ["O=C(/C=C/c1ccc(OCc2ccc3ccccc3n2)cc1)c1cc(-c2nn[nH]n2)ccc1O", "N"],
  ["O=C(/C=C/c1cccc(/C=C/c2ccc3ccccc3n2)c1)c1cc(-c2nn[nH]n2)ccc1O", "Y"],
  ["Cn1c(COc2ccc(/C=C/C(=O)c3cc(-c4nn[nH]n4)ccc3O)cc2)nc2ccccc21", "Y"]
]}

Next:
Hello, I'm reviewing records and need to know if IC50 of `O=C(/C=C/c1cccc(/C=C/c2ccc3ccccc3n2)c1)c1cc(OCc2nn[nH]n2)ccc1O` is below 200 nM. Could you check? Y

###

molecules and their reported Kd
- Target Desc: Cysteinyl leukotriene receptor 1 (Cavia porcellus)
- Assay Overview: Displacement of [3H]LTD4 from Cysteinyl leukotriene D4 receptor in guinea pig lung membranes
I only need the number, in nM, no unit after it.

Answered cases to consult:
{"columns": ["Smiles Input", "Kd, nM"],
 "data": [
  ["O=C(/C=C/c1cccc(OCc2ccc3ccccc3n2)c1)c1cc(-c2nn[nH]n2)ccc1O", 209],
  ["O=C(O)c1ccc(C(=O)/C=C/c2ccc(OCc3ccc4ccccc4n3)cc2)c(O)c1", 1210],
  ["COC(=O)c1ccc(OC)c(C(=O)/C=C/c2ccc(OCc3ccc4ccccc4n3)cc2)c1", 357]
]}

Provide Kd value for the following molecule: `CCOCCn1c(COc2cccc(/C=C/C(=O)c3cc(Cl)cc(C(=O)O)c3O)c2)nc2ccccc21` 10500
